# credit: ChEMBL document CHEMBL1142735

Biological target: Sodium-dependent serotonin transporter (Homo sapiens, UniProt P31645)
Sequence (P31645 whole entry): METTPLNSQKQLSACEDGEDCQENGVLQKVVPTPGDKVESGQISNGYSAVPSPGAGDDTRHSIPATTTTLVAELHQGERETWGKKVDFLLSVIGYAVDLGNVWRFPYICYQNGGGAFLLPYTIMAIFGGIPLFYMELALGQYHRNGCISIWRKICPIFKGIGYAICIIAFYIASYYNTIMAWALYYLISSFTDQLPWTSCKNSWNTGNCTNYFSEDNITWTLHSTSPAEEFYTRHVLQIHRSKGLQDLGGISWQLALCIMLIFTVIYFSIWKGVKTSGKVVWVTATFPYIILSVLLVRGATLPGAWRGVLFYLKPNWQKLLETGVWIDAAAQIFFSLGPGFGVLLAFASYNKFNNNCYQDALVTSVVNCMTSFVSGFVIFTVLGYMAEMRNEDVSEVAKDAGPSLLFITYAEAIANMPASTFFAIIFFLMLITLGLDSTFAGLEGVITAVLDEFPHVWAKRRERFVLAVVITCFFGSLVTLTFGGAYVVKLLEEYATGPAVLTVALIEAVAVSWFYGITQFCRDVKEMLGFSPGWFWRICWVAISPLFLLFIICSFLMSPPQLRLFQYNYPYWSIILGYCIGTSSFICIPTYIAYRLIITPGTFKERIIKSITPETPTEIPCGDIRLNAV
Experiment: Binding affinity for serotonin transporter
pKi: −log10 of the molar value.
experimental_readout: pKi

c1ccc2c(c1)NC[C@@H]1C2=NO[C@H]1CN1CCN(Cc2ccc3ccccc3c2)CC1 ... 9.30

P. CCOCCOCCOc1ccc2c(c1)OC[C@@H]1C2=NO[C@H]1CN1CCN(C/C(C)=C/c2ccccc2)CC1
Q. C/C(=C\c1ccccc1)CN1CCN(C[C@@H]2ON=C3c4ccc(OCCN(C)C)cc4OC[C@H]32)CC1
R. CC(=O)Oc1ccc2c(c1)OC[C@@H]1C2=NO[C@H]1CN1CCN(C/C(C)=C/c2ccccc2)CC1
## Input Falling order of pKi, please. # respond with the labels, arranged in the requested order
## Output Q, R, P
(Q: 8.46, R: 8.11, P: 7.77)

----------
Biological target: Alpha-2C adrenergic receptor (Homo sapiens)
Sequence (P18825 whole entry): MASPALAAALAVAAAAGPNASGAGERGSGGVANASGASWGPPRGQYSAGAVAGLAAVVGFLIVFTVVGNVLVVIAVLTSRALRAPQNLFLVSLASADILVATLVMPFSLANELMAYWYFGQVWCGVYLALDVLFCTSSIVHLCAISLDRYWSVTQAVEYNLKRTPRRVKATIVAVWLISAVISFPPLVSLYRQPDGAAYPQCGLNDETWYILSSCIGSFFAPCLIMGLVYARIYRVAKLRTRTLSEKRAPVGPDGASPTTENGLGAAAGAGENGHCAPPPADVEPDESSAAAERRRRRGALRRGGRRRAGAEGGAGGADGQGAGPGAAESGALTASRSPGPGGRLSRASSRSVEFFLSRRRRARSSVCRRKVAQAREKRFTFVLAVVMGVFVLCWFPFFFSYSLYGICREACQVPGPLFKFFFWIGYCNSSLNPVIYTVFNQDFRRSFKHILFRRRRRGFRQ
Experiment: Binding affinity for alpha-2C adrenergic receptor
pKi: −log10 of the molar value.
experimental_readout: pKi

COc1ccc2c(c1)OC[C@@H]1C2=NO[C@H]1CN1CCN(C/C(C)=C/c2ccccc2)CC1 ... 9.70

1. C/C(=C\c1ccccc1)CN1CCN(C[C@@H]2ON=C3c4ccc(OC(=O)c5ccncc5)cc4OC[C@H]32)CC1
2. C/C(=C\c1ccccc1)CN1CCN(C[C@@H]2ON=C3c4ccc(OC(=O)C(C)(C)C)cc4OC[C@H]32)CC1
## Input Hi there, can you help? I need to know whether 1 or 2 has lower measured pKi. Answer with the label corresponding to your selection.
## Output 2
(2: 8.80, 1: 9.30)
